Could you please report measured Papp A→B at 90 min, 50 μmol/L for the items listed next?
Assay protocol: Transport experiment across Caco-2 cell monolayer (Papp)
Assay type: in vitro ADME, human
Experimental setup: human, Caco-2, individual compound, 50 μmol/L, 90 min
Write it as a number; the unit ×10⁻⁶ cm/s goes unstated.

Inquiry: Read off the recorded Papp A→B at 90 min, 50 μmol/L for COc1cc(O)c2c(=O)cc(-c3ccc(O)cc3)oc2c1[C@@H]1O[C@H](CO)[C@@H](O)[C@H](O)[C@H]1O [Isoswertisin]
Reply text: 1.07

Inquiry: Read off the recorded Papp A→B at 90 min, 50 μmol/L for O=c1cc(-c2ccc(O)cc2)oc2c([C@@H]3O[C@H](CO)[C@@H](O)[C@H](O)[C@H]3O[C@@H]3O[C@H](CO)[C@H](O)[C@H](O)[C@H]3O)c(O)cc(O)c12 [2”-O-β-L-galactopyranosylvitexin]
Reply text: 1.85

Inquiry: Read off the recorded Papp A→B at 90 min, 50 μmol/L for O=c1cc(-c2ccc(O)c(O)c2)oc2c([C@@H]3O[C@H](CO)[C@@H](O)[C@H](O)[C@H]3O[C@@H]3O[C@H](CO)[C@H](O)[C@H](O)[C@H]3O)c(O)cc(O)c12 [2”-O-β-L-galactopyranosylorientin]
Reply text: 1.84

Inquiry: Read off the recorded Papp A→B at 90 min, 50 μmol/L for O=c1cc(-c2ccc(O)cc2)oc2c([C@@H]3O[C@H](CO)[C@@H](O)[C@H](O)[C@H]3O)c(O)cc(O)c12 [Vitexin]
Reply text: 2.26

Inquiry: Read off the recorded Papp A→B at 90 min, 50 μmol/L for O=c1cc(-c2ccc(O)c(O)c2)oc2c([C@@H]3O[C@H](CO)[C@@H](O)[C@H](O)[C@H]3O)c(O)cc(O)c12 [Orientin]
Reply text: 0.75

Inquiry: Read off the recorded Papp A→B at 90 min, 50 μmol/L for CCC(C)C(=O)O[C@@H]1[C@@H](O)[C@H](O)[C@@H](CO)O[C@H]1c1c(OC)cc(O)c2c(=O)cc(-c3ccc(O)cc3)oc12 (stereo partly shown) [2”-O-(2”‘-methylbutanoyl)isoswertisin]
Reply text: 4.5

Inquiry: Read off the recorded Papp A→B at 90 min, 50 μmol/L for COc1cc(O)c2c(=O)cc(-c3ccc(O)c(O)c3)oc2c1[C@@H]1O[C@H](CO)[C@@H](O)[C@H](O)[C@H]1O [Isoswertiajaponin]
Reply text: 0.98

----------
Assay protocol: Transport experiment across Caco-2 cell monolayer (Papp)
Format: in vitro ADME, human
Experimental setup: human, Caco-2, in the equimolar mixture of the seven flavonoids, 50 μmol/L, 90 min
Could you please report measured Papp A→B at 90 min, 50 μmol/L for the items listed next?
Write it as a number; the unit ×10⁻⁶ cm/s goes unstated.

Inquiry: Read off the recorded Papp A→B at 90 min, 50 μmol/L for O=c1cc(-c2ccc(O)cc2)oc2c([C@@H]3O[C@H](CO)[C@@H](O)[C@H](O)[C@H]3O[C@@H]3O[C@H](CO)[C@H](O)[C@H](O)[C@H]3O)c(O)cc(O)c12
Reply text: 1.92

Inquiry: Read off the recorded Papp A→B at 90 min, 50 μmol/L for O=c1cc(-c2ccc(O)c(O)c2)oc2c([C@@H]3O[C@H](CO)[C@@H](O)[C@H](O)[C@H]3O)c(O)cc(O)c12
Reply text: 1.14

Inquiry: Read off the recorded Papp A→B at 90 min, 50 μmol/L for O=c1cc(-c2ccc(O)cc2)oc2c([C@@H]3O[C@H](CO)[C@@H](O)[C@H](O)[C@H]3O)c(O)cc(O)c12
Reply text: 1.6
